# system-name: T1, EsCas13d, nuclease-dead (Eubacterium siraeum, UniProt B0MS50, R295A;H300A;R849A;H854A)
# T1 sequence: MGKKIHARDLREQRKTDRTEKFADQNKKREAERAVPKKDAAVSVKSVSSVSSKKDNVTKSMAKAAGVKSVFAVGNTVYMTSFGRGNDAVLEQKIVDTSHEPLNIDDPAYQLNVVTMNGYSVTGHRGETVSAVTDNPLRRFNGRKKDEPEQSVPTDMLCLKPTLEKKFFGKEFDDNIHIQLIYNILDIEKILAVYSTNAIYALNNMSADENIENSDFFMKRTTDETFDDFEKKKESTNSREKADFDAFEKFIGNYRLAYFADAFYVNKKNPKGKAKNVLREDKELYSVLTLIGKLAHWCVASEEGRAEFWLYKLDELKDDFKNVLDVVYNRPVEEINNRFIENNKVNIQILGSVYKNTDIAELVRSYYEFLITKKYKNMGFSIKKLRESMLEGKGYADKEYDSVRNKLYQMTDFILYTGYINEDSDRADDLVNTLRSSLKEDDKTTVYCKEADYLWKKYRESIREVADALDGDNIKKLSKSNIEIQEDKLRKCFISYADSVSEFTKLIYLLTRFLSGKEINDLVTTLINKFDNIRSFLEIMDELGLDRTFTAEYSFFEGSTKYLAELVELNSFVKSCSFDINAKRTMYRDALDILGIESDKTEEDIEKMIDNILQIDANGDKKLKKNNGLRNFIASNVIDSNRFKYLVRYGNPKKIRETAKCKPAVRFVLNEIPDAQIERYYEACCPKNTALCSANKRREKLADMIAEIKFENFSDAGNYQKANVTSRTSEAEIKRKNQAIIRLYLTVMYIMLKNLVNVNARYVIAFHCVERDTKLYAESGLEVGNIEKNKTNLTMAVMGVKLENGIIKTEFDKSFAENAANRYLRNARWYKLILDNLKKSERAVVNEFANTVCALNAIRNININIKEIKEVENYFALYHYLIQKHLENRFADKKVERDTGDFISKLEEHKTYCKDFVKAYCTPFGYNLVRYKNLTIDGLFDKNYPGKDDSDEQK
# assay-remarks: crRNA (strand 1, pre-loaded); Mg2+; 40 mM Tris-HCl pH 7.5, 150 mM NaCl, 6 mM MgCl2, 1 mM DTT, 0.1% Tween-20, 0.2 mg/ml BSA; 25 C; 10 min per concentration, then washed
# condition-notes: tags: His6-TwinStrep-SUMO cleaved; N-terminal SNAP kept (SNAP-Surface 488); label: 3' end held by stalled T7 RNA polymerase
// boundary case: Kd equal to 9 nM maps to False; strictly smaller maps to True

1) target 1 insU 3' of 12,insU 3' of 2 (mixed) RNA 1: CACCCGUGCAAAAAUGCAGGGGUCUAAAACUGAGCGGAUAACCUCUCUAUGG RNA 2: GGGAAUGGAUCCACAUCUACGAAUUCGUACCAUAGAGAGGUUUAUCCGCUCUACCGAGAUCGGAAGAGCACACGU: True
2) target 1 insA 3' of 4,insU 3' of 2 (mixed) RNA 1: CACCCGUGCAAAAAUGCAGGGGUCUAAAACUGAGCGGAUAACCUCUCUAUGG RNA 2: GGGAAUGGAUCCACAUCUACGAAUUCGUACCAUAGAGAGGUUAUCCGCAUCUACCGAGAUCGGAAGAGCACACGU: False

Confirm or reject: Kd of target 2 MT 5'PFS ACU 3'PFS ACU (mixed) RNA 1: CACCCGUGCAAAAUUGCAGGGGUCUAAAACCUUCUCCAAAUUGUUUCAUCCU RNA 2: GGGAAUGGAUCCACAUCUACGAAUUCACUAGGAUGAAACAAUUUGGAGAAGACUAGAUCGGAAGAGCACACGU lies strictly below 9 nM
True

Try this binder too: target 3 insU 3' of 22,insA 3' of 22 (mixed) RNA 1: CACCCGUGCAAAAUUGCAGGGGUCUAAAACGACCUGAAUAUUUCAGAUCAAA RNA 2: GGGAAUGGAUCCACAUCUACGAAUUCGUUUUAUUGAUCUGAAAUAUUCAGGUCUGCAGAUCGGAAGAGCACACGU
False

Try this binder too: target 1 insG 3' of 7,insG 3' of 6 (mixed) RNA 1: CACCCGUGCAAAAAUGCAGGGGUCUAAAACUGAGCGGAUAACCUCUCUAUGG RNA 2: GGGAAUGGAUCCACAUCUACGAAUUCGUACCAUAGAGAGGUUAUCGCGGCUCACCGAGAUCGGAAGAGCACACGU
True

Try this binder too: target 2 MT 5'PFS GCU 3'PFS AGC (mixed) RNA 1: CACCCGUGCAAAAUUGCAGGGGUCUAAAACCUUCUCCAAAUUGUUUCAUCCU RNA 2: GGGAAUGGAUCCACAUCUACGAAUUCGCUAGGAUGAAACAAUUUGGAGAAGAGCAGAUCGGAAGAGCACACGU
True
